# Tested on: SMMC-7721
# ASSAY: Antiproliferative activity against human SMMC7721 cells after 24 hrs by MTT assay
# Format: functional, cell-based
# COND: SMMC-7721, 24 h
# pIC50 per entry
Interpret pIC50 as the negative base-10 log of the concentration measured in mol/L.

Answered cases to consult:
CC(C)=CCC[C@]1(C)C=Cc2c(O)c3c(c(CC=C(C)C)c2O1)O[C@]12C(=C[C@@H]4C[C@H]1C(C)(C)O[C@@]2(C/C=C(/C)C(=O)O)C4=O)C3=O [GAMBOGIC ACID] :: 5.49
CC(C)=CCC12OC(C)(C)C3CC(C=C4C(=O)CC(C)OC431)C2=O (configuration not stated) :: 3.83
CC(C)=CCC12OC(C)(C)C3CC(C=C4C(=O)c5cccc(O)c5OC431)C2=O (configuration not stated) :: 4.93
CC(C)=CCC12OC(C)(C)C3CC(C=C4C(=O)c5c(O)cccc5OC431)C2=O (configuration not stated) :: 5.09
CC(C)=CCC12OC(C)(C)C3CC(C=C4C(=O)c5ccccc5OC431)C2=O (configuration not stated) :: 4.98

Answer with the recorded pIC50 of CC(C)=CCC12OC(C)(C)C3CC(C=C4C(=O)c5ccc(O)cc5OC431)C2=O (configuration not stated) only.
4.91

Answer with the recorded pIC50 of CC(C)=CCC12OC(C)(C)C3CC(C=C4C(=O)c5cc(O)ccc5OC431)C2=O (configuration not stated) only.
4.70

Values from ChEMBL document CHEMBL1759837
